target: GLP-1R (Homo sapiens, UniProt P43220); assay: GLP-1R activation: cAMP increase in CHO cells stably expressing GLP-1R; assay type: cell-based; conditions: cAMP increase, CHO cells stably expressing GLP-1R, 10 point dose response, 30 minutes incubation; read-out: EC50
Sequence (P43220 24-463): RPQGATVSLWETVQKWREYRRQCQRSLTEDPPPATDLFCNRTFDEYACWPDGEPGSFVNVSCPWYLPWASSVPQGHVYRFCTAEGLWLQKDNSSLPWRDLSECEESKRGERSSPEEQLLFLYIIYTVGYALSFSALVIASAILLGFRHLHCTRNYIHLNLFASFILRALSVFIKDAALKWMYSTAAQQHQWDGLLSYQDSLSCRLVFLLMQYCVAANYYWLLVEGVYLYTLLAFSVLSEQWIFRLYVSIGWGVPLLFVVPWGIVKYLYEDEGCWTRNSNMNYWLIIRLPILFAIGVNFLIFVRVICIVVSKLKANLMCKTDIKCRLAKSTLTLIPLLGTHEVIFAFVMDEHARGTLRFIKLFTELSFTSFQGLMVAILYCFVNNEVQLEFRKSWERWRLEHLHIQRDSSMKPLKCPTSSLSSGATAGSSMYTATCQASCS
Mark each entry 1 if its EC50 sits below 10 nM, and 0 for all others.

Query block: Does this compound meet the criterion EC50 < 10 nM? `CO[C@H]1C[C@@H](n2c(Cc3cc(F)c(-c4cccc(OCc5ccc(C#N)cc5F)n4)cc3F)nc3ccc(C(=O)O)cc32)C1`
Result block: 0

Query block: Just wondering, is EC50 of `N#Cc1ccc(COc2cccc(-c3ccc(Cc4nc5cccc(C(=O)O)c5n4CC4(CF)CC4)c(F)c3)n2)c(F)c1` below 10 nM?
Result block: 0

Query block: Please let me know if `COCCn1c(Cc2c(F)cc(-c3cccnc3OCc3ccccc3)cc2F)nc2ccc(C(=O)O)cc21` shows EC50 below 10 nM.
Result block: 0
